# System: Erysiphe graminis tritici (powdery mildew)
# test description: Test 1 greenhouse foliar spray screen, powdery mildew on wheat
# Assay type: in vivo
# condition details: Blumeria graminis, foliar, Test 1, foliar spray on wheat; disease control rating at 400 ppm / 100 ppm; read-out: POWD MDEW
Reported values of pest or weed control at 400 ppm for individual entries

INSERT INTO results (molecule, obs_value) VALUES
  ('Cc1ccc(CCOc2cc(Cl)nc3c(F)cccc23)cc1 [Example 193]', '0 to 19%'),
  ('Clc1cc(Cl)c2c(OCCc3ccc(-c4ccccc4)cc3)ccnc2c1 [Example 194]', '20 to 89%');

Lab note: need pest or weed control at 400 ppm with Erysiphe graminis tritici (powdery mildew) for entry Fc1cccc2c(NCCc3ccc(Cl)cc3)cc(NCCc3ccc(Cl)cc3)nc12 [Example 188] , please look it up. 0 to 19%

Notebook entry, Erysiphe graminis tritici (powdery mildew) assay: pest or weed control at 400 ppm of Fc1cccc2c(OCCc3cccs3)ccnc12 [Example 246] = ? 90 to 100%

Field: pest or weed control at 400 ppm (Erysiphe graminis tritici (powdery mildew)). Entry: CCOc1ccc(CCOc2ccnc3cc(Cl)cc(Cl)c23)cc1 [Example 277] 90 to 100%

---

# System: Twospotted spider mites (Tetranychus urticae Koch)
# test description: Mite/insect screen, SM
# Format: in vivo
# condition details: Tetranychus urticae, foliar, percent mortality; rate 200 ppm, foliar spray on squash; read-out: SM RESULTS %
test readout: mortality at 200 ppm (%)
Number only, in %; omit the unit.

Below: 4 molecules and their reported mortality at 200 ppm.
INSERT INTO results (molecule, target_or_system, test_readout, measure_unit, obs_value) VALUES
  ('Fc1ccc(CCOc2ccnc3c(F)cccc23)c(F)c1 [Example 275]', 'Twospotted spider mites (Tetranychus urticae Koch)', 'mortality at 200 ppm', '%', 0),
  ('Fc1cccc2c(OCCc3cccc4ccccc34)ccnc12 [Example 244]', 'Twospotted spider mites (Tetranychus urticae Koch)', 'mortality at 200 ppm', '%', 0),
  ('CC(=O)N(CCc1ccc(Cl)cc1)c1cc(N(CCc2ccc(Cl)cc2)C(C)=O)c2ccccc2n1 [Example 182]', 'Twospotted spider mites (Tetranychus urticae Koch)', 'mortality at 200 ppm', '%', 0),
  ('CC(C)(C)c1ccc(CCOc2ccnc3c(F)cccc23)cc1 [Example 221]', 'Twospotted spider mites (Tetranychus urticae Koch)', 'mortality at 200 ppm', '%', 90);

Query molecule follows.
Suppose we examine the molecule Fc1cccc2c(NCCc3ccsc3)ccnc12 [Example 175] ; what mortality at 200 ppm value has been reported? 0

---

# System: Puccinia recondita tritici (leaf rust)
# test description: Test 1 greenhouse foliar spray screen, leaf rust on wheat
# Format: in vivo
# condition details: Puccinia recondita, foliar, Test 1, foliar spray on wheat; disease control rating at 400 ppm / 100 ppm
As shown below, each of these compounds has a reported pest or weed control at 400 ppm value.

Before answering, review these 5 worked examples.
INSERT INTO assay_data (compound, obs_value) VALUES
  ('Fc1cccc2c(OCCc3cccc(C(F)(F)F)c3)ccnc12 [Example 203]', '90 to 100%'),
  ('CC(C)(C)c1ccc(CCCOc2ccnc3c(F)cccc23)cc1 [Example 241]', '0 to 19%'),
  ('Fc1ccc(CCOc2ccnc3c(F)cccc23)c(F)c1 [Example 275]', '90 to 100%'),
  ('CC(C)c1ccc(CCCc2ccnc3c(F)cccc23)cc1 [Example 256]', '90 to 100%'),
  ('CCC(COc1ccnc2c(F)cccc12)c1ccc(-c2ccccc2)cc1 (centres unmarked) [Example 270]', '0 to 19%');

Name the reported pest or weed control at 400 ppm value associated with the compound Fc1cccc2c(OCCc3ccc(Br)cc3)ccnc12 [Example 223] 90 to 100%

What does the record list as pest or weed control at 400 ppm for Fc1cccc2c(NCCCCc3ccccc3)ccnc12 [Example 268] ? 90 to 100%
